For each of the compounds below, state its activation.
target_system: Glucocorticoid receptor (Homo sapiens) (UniProt P04150)
Sequence (P04150 whole entry, looked up): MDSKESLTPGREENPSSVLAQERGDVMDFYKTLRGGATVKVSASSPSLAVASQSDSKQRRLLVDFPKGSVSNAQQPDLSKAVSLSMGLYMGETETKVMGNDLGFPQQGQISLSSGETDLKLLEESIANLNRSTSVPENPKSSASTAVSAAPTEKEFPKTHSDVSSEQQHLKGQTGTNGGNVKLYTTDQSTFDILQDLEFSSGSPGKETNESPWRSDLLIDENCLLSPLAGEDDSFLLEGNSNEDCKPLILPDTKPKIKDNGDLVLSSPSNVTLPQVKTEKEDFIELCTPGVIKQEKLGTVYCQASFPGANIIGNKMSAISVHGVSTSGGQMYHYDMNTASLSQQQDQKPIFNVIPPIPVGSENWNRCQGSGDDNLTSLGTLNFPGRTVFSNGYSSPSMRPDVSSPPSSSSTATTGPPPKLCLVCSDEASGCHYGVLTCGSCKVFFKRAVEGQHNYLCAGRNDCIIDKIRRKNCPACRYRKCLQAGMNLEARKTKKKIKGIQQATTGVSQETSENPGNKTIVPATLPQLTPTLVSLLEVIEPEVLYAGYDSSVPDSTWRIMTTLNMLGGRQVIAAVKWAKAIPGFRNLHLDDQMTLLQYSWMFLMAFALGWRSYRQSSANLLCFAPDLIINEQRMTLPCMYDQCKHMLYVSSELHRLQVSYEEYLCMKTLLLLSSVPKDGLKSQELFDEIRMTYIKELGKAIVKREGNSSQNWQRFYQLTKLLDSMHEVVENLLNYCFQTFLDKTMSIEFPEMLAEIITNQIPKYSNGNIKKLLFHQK
experiment_summary: qHTS assay for small molecule agonists of glucocorticoid receptor signaling (AID 588532);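 note: 100% = dexamethasone at 0.1 µM and 0% = DMSO only wells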
condition_info: HeLa MMTV-bla, beta-lactamase ratio, agonist, 18 h; active compounds read high; percent of dexamethasone control, DMSO zero
Records with an inconclusive call do not appear.
Answers are plain numbers, in %.

>>> df
                                   compound                             target_system  unit_of_measure  measured_number
0              O=c1n(Cl)c(=O)n(Cl)c(=O)n1Cl  Glucocorticoid receptor (Homo sapiens) (UniProt P04150)                %            0.274
1  C[C@H]1C(=O)O[C@@H]2CCN3CC=C(COC(=O)[C@](C)(O)[C@]1(C)O)[C@H]23  Glucocorticoid receptor (Homo sapiens) (UniProt P04150)                %             8.93
2                      CCNc1nc(Cl)nc(NCC)n1  Glucocorticoid receptor (Homo sapiens) (UniProt P04150)                %             3.33

Challenge: # value lookup — system Glucocorticoid receptor (Homo sapiens) (UniProt P04150), readout activation, item N#Cc1nn(-c2c(Cl)cc(C(F)(F)F)cc2Cl)c(N)c1S(=O)C(F)(F)F (centres undefined)
Response given: -6.58

Hey, just so you know, these numbers are from PubChem BioAssay (NCATS).
